# pKi per entry
# target: human orexin-2 receptor (Homo sapiens (Human))
# Sequence (O43614 whole entry): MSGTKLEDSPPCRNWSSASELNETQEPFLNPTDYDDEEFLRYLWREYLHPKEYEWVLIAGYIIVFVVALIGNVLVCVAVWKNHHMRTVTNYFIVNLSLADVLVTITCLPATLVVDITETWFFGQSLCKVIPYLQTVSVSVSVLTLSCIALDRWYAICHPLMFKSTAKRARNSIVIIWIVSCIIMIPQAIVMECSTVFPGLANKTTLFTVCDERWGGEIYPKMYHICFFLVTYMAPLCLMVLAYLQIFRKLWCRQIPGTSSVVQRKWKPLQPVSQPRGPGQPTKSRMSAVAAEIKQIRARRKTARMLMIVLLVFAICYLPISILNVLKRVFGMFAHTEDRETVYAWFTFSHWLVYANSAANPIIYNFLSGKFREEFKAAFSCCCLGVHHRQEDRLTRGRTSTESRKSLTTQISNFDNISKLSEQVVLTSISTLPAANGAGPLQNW
# assay-name: Human orexin 2 receptor radioligand binding ([3H]-EMPA competition)
# test-parameters: HEK293 cells stably expressing human orexin-2 receptor; [3H]-EMPA 5 nM final; apparent Ki=IC50/(1+C/Kd), Kd=2 nM; read-out: OR 2 Ki
// pKi here means minus log10 of the molar concentration (mol/L)

Cc1cc(C)nc(N2CC3CN(C(=O)c4ccc(C)nc4-n4ccnn4)CC3C2)n1 (stereo not shown)    6.54

[in] Name the recorded pKi of the item CN(C)c1nc(N2CC3CN(C(=O)c4ccc(F)cc4-n4nccn4)CC3C2)cc(C(F)(F)F)n1 (stereo not shown) in your answer.
[out] 7.55

[in] Name the recorded pKi of the item COc1ccc(C(C)(C)C)cc1C(=O)N1CC2CN(c3nc(C)cc(C)n3)CC2C1 (stereo not shown) in your answer.
[out] 5.00

[in] Name the recorded pKi of the item COc1ccc(C(=O)N2CC3CN(c4nc(C)cc(C)n4)CC3C2)c(C)c1 (stereo not shown) in your answer.
[out] 6.17

----------
# target: human orexin-2 receptor (Homo sapiens (Human))
# assay-name: Human orexin 2 receptor radioligand binding ([3H]-EMPA competition)
# test-parameters: HEK293 cells stably expressing human orexin-2 receptor; [3H]-EMPA 5 nM final; apparent Ki=IC50/(1+C/Kd), Kd=2 nM; read-out: OR 2 Ki
quantity-measured: Ki (nM)
Quick note: give the figure in nM, leave out the unit.

Some solved cases for reference:
Cc1ccnc(-c2cc(F)ccc2C(=O)N2CC3CN(c4nc(C)cc(C)n4)CC3C2)c1 (centres unmarked)    36
O=C(c1ccccc1-n1cccc1)N1CC2CN(c3cnc4ccccc4n3)CC2C1 (centres unmarked)    740
COc1cccc(OC)c1C(=O)N1CC2CN(c3ccc(C(F)(F)F)cn3)CC2C1 (centres unmarked)    10000
Cc1cc(C)nc(N2CC3CN(C(=O)c4ncccc4-c4nc(C)no4)CC3C2)n1 (centres unmarked)    940

[in] // fetch Ki for Cc1nc(N2CC3CN(C(=O)c4ncccc4-n4nccn4)CC3C2)nc(C)c1F (centres unmarked) ; system: human orexin-2 receptor (Homo sapiens (Human))
[out] 16

[in] // fetch Ki for Cc1noc(-c2ccccc2C(=O)N2CC3CN(c4ncc(F)c(C)n4)CC3C2)n1 (centres unmarked) ; system: human orexin-2 receptor (Homo sapiens (Human))
[out] 64

[in] // fetch Ki for COc1ccc(C(=O)N2CC3CN(c4nc5ccccc5o4)CC3C2)c(OC)c1 (centres unmarked) ; system: human orexin-2 receptor (Homo sapiens (Human))
[out] 5000

[in] // fetch Ki for CCCc1nc(C)cc(N2CC3CN(C(=O)c4ccccc4-n4nccn4)CC3C2)n1 (centres unmarked) ; system: human orexin-2 receptor (Homo sapiens (Human))
[out] 9000

----------
# target: human orexin-2 receptor (Homo sapiens (Human))
# assay-name: Human orexin 2 receptor radioligand binding ([3H]-EMPA competition)
# test-parameters: HEK293 cells stably expressing human orexin-2 receptor; [3H]-EMPA 5 nM final; apparent Ki=IC50/(1+C/Kd), Kd=2 nM; read-out: OR 2 Ki
# pKi per entry
// pKi here means minus log10 of the molar concentration (mol/L)

COc1ccc2nc(N3CC4CN(C(=O)c5ccccc5-c5ccccc5)CC4C3)sc2c1 (stereo not shown)    5.64

[in] Name the recorded pKi of the item Cc1nc(N2CC3CN(C(=O)c4ncccc4-n4nccn4)CC3C2)nc(C)c1C (stereo not shown) in your answer.
[out] 7.60

[in] Name the recorded pKi of the item COc1ccc(C(=O)N2CC3CN(c4nc5ccc(Cl)cc5s4)CC3C2)c(OC)c1 (stereo not shown) in your answer.
[out] 6.42

[in] Name the recorded pKi of the item O=C(c1ccccc1-c1cccc(F)c1)N1CC2CN(c3cnc4ccccc4n3)CC2C1 (stereo not shown) in your answer.
[out] 6.87
